Recorded IC50, one value per entry.
Target: human NaV 1.8 channels stably expressed in HEK 293 cells (Homo sapiens (Human), UniProt Q9Y5Y9)
Sequence (Q9Y5Y9 whole entry): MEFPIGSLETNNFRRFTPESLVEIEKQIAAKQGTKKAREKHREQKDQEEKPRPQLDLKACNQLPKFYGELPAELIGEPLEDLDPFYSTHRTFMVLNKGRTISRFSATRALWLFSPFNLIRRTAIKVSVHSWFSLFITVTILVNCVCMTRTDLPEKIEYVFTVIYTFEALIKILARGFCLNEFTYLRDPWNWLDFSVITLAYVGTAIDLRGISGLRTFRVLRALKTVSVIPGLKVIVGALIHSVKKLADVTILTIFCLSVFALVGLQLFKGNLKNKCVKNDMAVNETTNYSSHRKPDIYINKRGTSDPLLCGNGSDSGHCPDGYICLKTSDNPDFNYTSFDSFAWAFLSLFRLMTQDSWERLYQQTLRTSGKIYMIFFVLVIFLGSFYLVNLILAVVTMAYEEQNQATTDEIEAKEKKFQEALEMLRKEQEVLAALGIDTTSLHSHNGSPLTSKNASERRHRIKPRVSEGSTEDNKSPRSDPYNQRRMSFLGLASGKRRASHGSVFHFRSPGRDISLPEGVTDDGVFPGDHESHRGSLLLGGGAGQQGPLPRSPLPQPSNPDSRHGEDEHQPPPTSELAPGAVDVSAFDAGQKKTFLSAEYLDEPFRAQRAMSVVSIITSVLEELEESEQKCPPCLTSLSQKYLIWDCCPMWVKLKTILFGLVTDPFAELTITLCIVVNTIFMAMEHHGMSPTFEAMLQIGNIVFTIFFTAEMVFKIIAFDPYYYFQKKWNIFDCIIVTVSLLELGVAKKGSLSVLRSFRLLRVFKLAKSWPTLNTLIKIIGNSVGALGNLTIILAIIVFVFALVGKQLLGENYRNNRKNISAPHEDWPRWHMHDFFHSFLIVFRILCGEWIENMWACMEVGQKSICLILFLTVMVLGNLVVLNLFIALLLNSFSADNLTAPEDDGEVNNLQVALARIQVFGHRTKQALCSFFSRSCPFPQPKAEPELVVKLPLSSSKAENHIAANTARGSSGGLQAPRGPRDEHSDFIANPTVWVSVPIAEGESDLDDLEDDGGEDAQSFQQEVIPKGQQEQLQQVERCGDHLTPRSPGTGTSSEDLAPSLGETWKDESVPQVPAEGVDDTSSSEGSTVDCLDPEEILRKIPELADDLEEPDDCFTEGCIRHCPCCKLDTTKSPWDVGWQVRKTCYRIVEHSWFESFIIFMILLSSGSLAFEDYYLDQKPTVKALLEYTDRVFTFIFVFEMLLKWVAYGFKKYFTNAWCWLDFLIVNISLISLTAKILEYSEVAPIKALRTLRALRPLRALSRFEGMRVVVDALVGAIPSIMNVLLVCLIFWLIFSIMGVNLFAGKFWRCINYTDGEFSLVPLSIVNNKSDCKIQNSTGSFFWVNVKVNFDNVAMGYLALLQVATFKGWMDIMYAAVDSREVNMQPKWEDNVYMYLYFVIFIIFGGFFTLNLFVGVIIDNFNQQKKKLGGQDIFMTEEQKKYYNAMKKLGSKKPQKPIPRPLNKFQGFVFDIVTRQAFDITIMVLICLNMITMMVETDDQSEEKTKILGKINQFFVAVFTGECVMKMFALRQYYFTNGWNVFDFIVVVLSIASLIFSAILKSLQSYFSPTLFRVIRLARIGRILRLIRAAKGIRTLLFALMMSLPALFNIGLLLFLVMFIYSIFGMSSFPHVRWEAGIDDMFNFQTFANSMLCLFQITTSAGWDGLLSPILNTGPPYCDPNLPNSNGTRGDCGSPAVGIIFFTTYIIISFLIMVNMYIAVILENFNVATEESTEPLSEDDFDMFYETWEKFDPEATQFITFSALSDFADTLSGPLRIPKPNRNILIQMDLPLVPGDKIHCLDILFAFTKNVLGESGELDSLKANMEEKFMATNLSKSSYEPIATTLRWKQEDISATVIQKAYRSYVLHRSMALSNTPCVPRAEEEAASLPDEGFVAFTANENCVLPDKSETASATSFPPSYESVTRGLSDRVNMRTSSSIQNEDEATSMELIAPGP
Assay: Nav1.8 Qube automated patch-clamp assay
Type: cell-based
Conditions: human NaV1.8 in HEK 293 cells, whole-cell voltage clamp, room temperature; read-out: IC50 values (nM) for Examples in the Nav1.8 Qube Assay
Report as a plain number; the unit nM is understood.

Known results for molecules:
In [3]: df
Out[3]:
                                   molecule  numeric_readout
0  C[C@@H]1C(=O)NCCN1C(=O)NC(c1ccc(OC(F)(F)F)cc1)c1ccc(F)c(C(F)(F)F)n1 (single isomer, unassigned) [Example 55B]             15.7
1  C[C@@H]1C(=O)NCCN1C(=O)NC(c1cnc(C(F)(F)F)c(Cl)c1)c1ccc(F)c(Cl)c1F (single isomer, unassigned)             1.13

Now let's try a different one.
Input line: Please give measured IC50 of the following entry: C[C@@H]1C(=O)NCCN1C(=O)NC(c1cnn(-c2ccc(F)cc2)c1)c1ccc(F)c(Cl)c1F (single isomer, unassigned) [Example 65A]
Output line: 8.05
